// data source = patent US20180273528A1

# assayed.target: DYRK1A (Homo sapiens)
# assay.comment: Kinase TR-FRET assay, DYRK1A
# Type: biochemical
# Set-up: full-length, wild-type human DYRK1A (NM_001396) with an HA tag; expressed in transfected cells; host or cells: human U2-OS osteosarcoma cells, transient transfection of a pcDNA3.1 plasmid
# particulars: full-length human kinase, 10 μM ATP
# Method: Inhibition of the enzymatic activity of human kinases was evaluated in a Time-Resolved Fluorescence Resonance Energy Transfer (TR-FRET) assay in 384-well reaction plates. […] Test compounds of the invention were added in reaction buffer at a range of concentrations from 0.1 nM to 30 μM. Following addition of EDTA (Sigma E7889, 10 mM) to stop the reaction, Europium-labelled mouse monoclonal antibody recognizing phospho-Thr232 in MBP (Perkin Elmer TRF0201, 1 nM) was added.
experimental.endpoint: IC50 (µM)

Examples from the recorded data:
query: Identify measured IC50 corresponding to Cc1nc2ccc(-c3cc(N)nc(N)c3)nc2n1CCOc1ccccn1 [Example 217]
result: 0.006

query: Identify measured IC50 corresponding to Cc1nc2ccc(-c3cc(N)nc(N)c3)nc2n1Cc1cccs1 [Example 20]
result: 0.016

query: Identify measured IC50 corresponding to Cc1nc2ccc(-c3cc(N)nc(N)c3)nc2n1CC1CCCC1 [Example 89]
result: 0.004

query: Identify measured IC50 corresponding to Cc1nc2ccc(-c3cc(N)nc(N)c3)nc2n1Cc1ccccn1 [Example 6]
result: 0.155

query: Identify measured IC50 corresponding to Cc1nc2ccc(-c3cc(N)nc(N)c3)nc2n1C1Cc2ccccc2C1 [Example 12]
result: 0.002

a = Cc1nc2ccc(-c3cc(N)nc(N)c3)nc2n1C[C@H]1C[C@@H]1c1ccccc1 (single isomer, unassigned) [Example 109]
b = Cc1nc2ccc(-c3cc(N)nc(N)c3)nc2n1Cc1ccccc1Cl [Example 47]
c = Cc1nc2ccc(-c3cc(N)nc(N)c3)nc2n1Cc1cc(Cl)ccc1Cl [Example 57]
query: # rank by IC50, ascending (min first) When ranking, write the labels in the order the request describes.
result: b, a, c

----------
# assayed.target: His-TEV-DYRK1A Kinase domain (aa127-485) (Homo sapiens, UniProt Q13627)
# Construct: His-TEV-DYRK1A Kinase domain (aa127-485); His tag (N); TEV protease cleavage site (N)
# assay.comment: Kinase ADP assay (ADP Hunter), DYRK1A kinase domain
# Assay type: biochemical
# particulars: 20 μM ATP
experimental.endpoint: IC50 (µM)

Examples from the recorded data:
query: Please tell me the measured IC50 for Cc1ccccc1O[C@H](C)Cn1c(C)nc2ccc(-c3cc(N)nc(N)c3)nc21 (single isomer, unassigned) ; system: His-TEV-DYRK1A Kinase domain (aa127-485) (Homo sapiens, UniProt Q13627).
result: 0.038

query: Please tell me the measured IC50 for `Cc1nc2ccc(-c3cc(N)nc(N)c3)nc2n1CCO` ; system: His-TEV-DYRK1A Kinase domain (aa127-485) (Homo sapiens, UniProt Q13627).
result: 0.02

query: Please tell me the measured IC50 for Cc1nc2ccc(-c3cc(N)nc(N)c3)nc2n1C1CC(c2ccccc2)C1 (stereo not drawn) ; system: His-TEV-DYRK1A Kinase domain (aa127-485) (Homo sapiens, UniProt Q13627).
result: 0.006

query: Please tell me the measured IC50 for `CCCCn1c(C)nc2ccc(-c3cc(N)nc(NCc4ccccc4)c3)nc21` ; system: His-TEV-DYRK1A Kinase domain (aa127-485) (Homo sapiens, UniProt Q13627).
result: 0.046

query: Please tell me the measured IC50 for `Cc1nc2ccc(-c3cc(N)nc(N)c3)nc2[nH]1` ; system: His-TEV-DYRK1A Kinase domain (aa127-485) (Homo sapiens, UniProt Q13627).
result: 0.009

I = Cc1nc2ccc(-c3cc(N)nc(N)c3)nc2n1CCOc1ccccc1F
II = Cc1nc2ccc(-c3cc(N)nc(N)c3)nc2n1C1CC1
query: Pick one: I or II . Which has the bigger IC50 number? Respond with the label that goes with your answer.
result: I
(I: 0.017 µM, II: 0.007 µM)

I = CCCCc1nc2ccc(-c3cc(N)nc(N)c3)nc2n1C1CCCC1
II = CCOC(=O)N1CCC(n2c(C)nc3ccc(-c4cc(N)nc(N)c4)nc32)CC1
III = CCCc1nc2ccc(-c3cc(N)nc(N)c3)nc2n1CCOc1ccccc1
query: Highest IC50 first, then in falling order down to the smallest. When ranking, write the labels in the order the request describes.
result: III, I, II
(III: 0.056 µM, I: 0.03 µM, II: 0.008 µM)

P = Cc1nc2ccc(-c3cc(N)nc(N)c3)nc2n1C[C@H](C)Oc1ncccc1Cl (single isomer, unassigned)
Q = CCC(C)Cn1c(C)nc2ccc(-c3cc(N)nc(N)c3)nc21 (stereo not drawn)
query: Pick one: P or Q . Which has the bigger IC50 number? Respond with the label that goes with your answer.
result: P

1 = CCCc1nc2ccc(-c3cc(N)nc(N)c3)nc2n1C
2 = Cc1nc2ccc(-c3cc(N)nc(N)c3)nc2n1CCC1CCCCC1
query: Pick one: 1 or 2 . Which has the bigger IC50 number? Respond with the label that goes with your answer.
result: 1

----------
# assayed.target: DYRK1A (Homo sapiens, UniProt Q13627)
# assay.comment: Kinase TR-FRET assay, DYRK1A
# Assay type: biochemical
# Set-up: full-length, wild-type human DYRK1A (NM_001396) with an HA tag; expressed in transfected cells; host or cells: human U2-OS osteosarcoma cells, transient transfection of a pcDNA3.1 plasmid
# particulars: full-length human kinase, 10 μM ATP
experimental.endpoint: IC50 (µM)

query: Please tell me the measured IC50 for Cc1nc2ccc(-c3cc(N)nc(N)c3)nc2n1CCOc1cccc2ccccc12 [Example 27] ; system: DYRK1A (Homo sapiens, UniProt Q13627).
result: 0.015

query: Please tell me the measured IC50 for Cc1nc2ccc(-c3cc(N)nc(N)c3)nc2n1C1CCOCC1 [Example 49] ; system: DYRK1A (Homo sapiens, UniProt Q13627).
result: 0.003

query: Please tell me the measured IC50 for CSCCCn1c(C)nc2ccc(-c3cc(N)nc(N)c3)nc21 [Example 44] ; system: DYRK1A (Homo sapiens, UniProt Q13627).
result: 0.019

query: Please tell me the measured IC50 for CCC(C)Cn1c(C)nc2ccc(-c3cc(N)nc(N)c3)nc21 (stereo not shown) [Example 34] ; system: DYRK1A (Homo sapiens, UniProt Q13627).
result: 0.03

query: Please tell me the measured IC50 for CCC(C)n1c(C)nc2ccc(-c3cc(N)nc(N)c3)nc21 (stereo not shown) [Example 33] ; system: DYRK1A (Homo sapiens, UniProt Q13627).
result: 0.045

I = CCn1c(C)nc2ccc(-c3cc(N)nc(N)c3)nc21 [Example 154]
II = CCCCn1c(C)nc2ccc(-c3ccnc(N)c3)nc21 [Example 236]
query: Of I and II , which carries the smaller reported IC50 figure? Respond with the label that goes with your answer.
result: I

a = Cc1nc2ccc(-c3cc(N)nc(N)c3)nc2n1CCO [Example 3]
b = Cc1nc2ccc(-c3cc(N)nc(N)c3)nc2n1Cc1ccoc1 [Example 42]
query: Of a and b , which carries the smaller reported IC50 figure? Respond with the label that goes with your answer.
result: b

1 = Cc1nc2ccc(-c3cc(N)nc(N)c3)nc2n1CCc1cnn(-c2ccccc2)c1 [Example 21]
2 = C=CCCn1c(C)nc2ccc(-c3cc(N)nc(N)c3)nc21 [Example 14]
query: Pick one: 1 or 2 . Which has the bigger IC50 number? Respond with the label that goes with your answer.
result: 1

----------
# assayed.target: DYRK1B (Homo sapiens)
# Construct: full-length human kinases from Carna Biosciences; purchased Carna Biosciences 04-131
# Sequence (Q9Y463 whole entry): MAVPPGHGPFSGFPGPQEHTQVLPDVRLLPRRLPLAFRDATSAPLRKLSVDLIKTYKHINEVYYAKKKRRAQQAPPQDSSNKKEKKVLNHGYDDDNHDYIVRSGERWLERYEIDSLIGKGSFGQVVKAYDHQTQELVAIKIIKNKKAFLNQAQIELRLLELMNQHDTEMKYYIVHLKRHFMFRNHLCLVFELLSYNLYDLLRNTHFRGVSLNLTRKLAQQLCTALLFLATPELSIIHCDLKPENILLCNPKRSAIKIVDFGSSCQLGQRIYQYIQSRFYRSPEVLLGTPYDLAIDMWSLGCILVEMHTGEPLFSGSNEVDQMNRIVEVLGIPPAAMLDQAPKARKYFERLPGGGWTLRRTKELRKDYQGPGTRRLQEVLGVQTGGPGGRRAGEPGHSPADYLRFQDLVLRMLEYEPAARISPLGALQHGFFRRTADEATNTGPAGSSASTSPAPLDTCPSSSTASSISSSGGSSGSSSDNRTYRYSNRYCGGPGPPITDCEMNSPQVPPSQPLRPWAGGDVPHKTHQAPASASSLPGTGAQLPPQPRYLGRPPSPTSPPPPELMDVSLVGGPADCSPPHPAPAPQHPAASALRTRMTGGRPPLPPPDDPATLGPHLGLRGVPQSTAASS
# assay.comment: Kinase TR-FRET assay, DYRK1B
# Type: biochemical
# particulars: full-length human kinase, 10 μM ATP
experimental.endpoint: IC50 (µM)

Examples from the recorded data:
query: Identify measured IC50 corresponding to `Cc1nc2ccc(-c3cc(N)nc(N)c3)nc2n1CC(C)(C)C`
result: 0.125

query: Identify measured IC50 corresponding to `Cc1nc2ccc(-c3cc(N)nc(N)c3)nc2n1CCC(C)C`
result: 0.006

query: Identify measured IC50 corresponding to `N#Cc1nc2ccc(-c3cc(N)nc(N)c3)nc2n1CCCC(F)(F)F`
result: 0.01

query: Identify measured IC50 corresponding to Cc1nc2ccc(-c3cc(N)nc(N)c3)nc2n1C[C@@H](C)Oc1ccccc1 (single isomer, unassigned)
result: 0.006

query: Identify measured IC50 corresponding to `Cc1nc2ccc(-c3cc(N)nc(N)c3)nc2n1C1CCSCC1`
result: 0.012

I = Cc1nc2ccc(-c3cc(N)nc(N)c3)nc2n1C1CC(F)(F)C1
II = CCC(CC)n1c(C)nc2ccc(-c3cc(N)nc(N)c3)nc21
query: Of I and II , which carries the smaller reported IC50 figure? Respond with the label that goes with your answer.
result: I

a = Cc1nc2ccc(-c3cc(N)nc(N)c3)nc2n1Cc1cc(Cl)ccc1Cl
b = Cc1nc2ccc(-c3cc(N)nc(N)c3)nc2n1Cc1ccoc1
query: Of a and b , which carries the smaller reported IC50 figure? Respond with the label that goes with your answer.
result: a
(a: 0.005 µM, b: 0.01 µM)
